# target or test system: UniProt Q06124
# method description: Measurement of SHP2 protein degradation in NCI-H358 cells (western blotting)
# Type: cell-based
# Parameters: endogenous in cells; host or cells: NCI-H358
# protocol conditions: 0.01 μM, harvested after 24 hours
property name: SHP2% degradation
A bare number is not enough; add the unit after it.

In the examples that follow, each entry is paired with its recorded SHP2% degradation.
INSERT INTO assay_data (compound, target_or_test_system, property_name, result) VALUES
  ('CC(=O)N[C@H](C(=O)N1C[C@H](O)C[C@H]1C(=O)NCc1ccc(-c2scnc2C)cc1O[C@H]1CC[C@H](C(=O)N2CC(Nc3cccc(Sc4cnc(N5CCC6(CC5)Cc5ncccc5[C@H]6N)cn4)c3Cl)C2)CC1)C(C)(C)C [Example 31]', 'UniProt Q06124', 'SHP2% degradation', '76.3%'),
  ('CC(=O)N[C@H](C(=O)N1C[C@H](O)C[C@H]1C(=O)NCc1ccc(-c2scnc2C)cc1O[C@H]1CC[C@H](C(=O)N2CCC(Nc3nccc(Sc4cnc(N5CCC(C)(CN)CC5)c(CO)n4)c3Cl)CC2)CC1)C(C)(C)C [Example 45]', 'UniProt Q06124', 'SHP2% degradation', '97.0%'),
  ('Cc1ncsc1-c1ccc(CNC(=O)[C@@H]2C[C@@H](O)CN2C(=O)[C@@H](NC(=O)C2(F)CC2)C(C)(C)C)c(OC2CCN(C(=O)C3CN(c4nccc(Sc5cnc(N6CCC(C)(CN)CC6)cn5)c4Cl)C3)CC2)c1 [Example 63]', 'UniProt Q06124', 'SHP2% degradation', '53.0%');

Now look at this one.
q: So what's the measured SHP2% degradation for this one? CC(=O)N[C@H](C(=O)N1C[C@H](O)C[C@H]1C(=O)NCc1ccc(-c2scnc2C)cc1OC1CCN(C(=O)C2CCN(c3nccc(Sc4cnc(N5CCC6(CC5)CO[C@@H](C)[C@H]6N)cn4)c3Cl)CC2)CC1)C(C)(C)C [Example 77]
a: 94.4%

* * *

# target or test system: SHP2 protein (Homo sapiens)
# Sequence (Q06124 whole entry): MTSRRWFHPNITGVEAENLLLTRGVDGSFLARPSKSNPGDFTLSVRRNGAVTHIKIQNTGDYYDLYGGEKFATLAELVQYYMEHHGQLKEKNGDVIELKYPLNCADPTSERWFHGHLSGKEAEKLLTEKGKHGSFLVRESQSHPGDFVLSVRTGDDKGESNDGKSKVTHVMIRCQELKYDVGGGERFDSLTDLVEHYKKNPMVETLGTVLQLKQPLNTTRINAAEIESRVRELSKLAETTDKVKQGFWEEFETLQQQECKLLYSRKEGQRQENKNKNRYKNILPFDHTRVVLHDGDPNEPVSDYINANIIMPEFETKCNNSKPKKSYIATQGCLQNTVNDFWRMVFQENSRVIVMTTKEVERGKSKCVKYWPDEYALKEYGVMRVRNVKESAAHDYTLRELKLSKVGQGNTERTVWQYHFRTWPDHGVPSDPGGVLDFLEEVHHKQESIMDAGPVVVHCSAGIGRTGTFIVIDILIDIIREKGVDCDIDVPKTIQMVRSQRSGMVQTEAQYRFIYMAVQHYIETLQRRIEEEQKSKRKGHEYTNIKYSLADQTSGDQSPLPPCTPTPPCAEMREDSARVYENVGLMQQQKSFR
# method description: Measurement of SHP2 protein degradation in MV-4-11 cells (western blotting)
# Format: cell-based
# Design: endogenous in cells
# protocol conditions: 0.1 μM, harvested after 24 hours
Recorded SHP2% degradation, one value per entry.
Number in %, nothing else.

In the examples that follow, each entry is paired with its recorded SHP2% degradation.
INSERT INTO results (compound_structure_string, result) VALUES
  ('Cc1ncsc1-c1ccc(CNC(=O)[C@@H]2C[C@@H](O)CN2C(=O)[C@@H](NC(=O)C2(F)CC2)C(C)(C)C)c(OCCC2CCN(C(=O)C3CN(c4nccc(Sc5cnc(N6CCC(C)(CN)CC6)cn5)c4Cl)C3)CC2)c1', 95.0),
  ('CC(=O)N[C@H](C(=O)N1C[C@H](O)C[C@H]1C(=O)NCc1ccc(-c2scnc2C)cc1O[C@H]1CC[C@H](C(=O)N2CC(Nc3nccc(Sc4cnc(N5CCC(C)(CN)CC5)cn4)c3Cl)C2)CC1)C(C)(C)C', 99.5),
  ('Cc1ncsc1-c1ccc(CNC(=O)[C@@H]2C[C@@H](O)CN2C(=O)[C@@H](NC(=O)C2(F)CC2)C(C)(C)C)c(O[C@H]2CC[C@H](C(=O)N3CC(Nc4cccc(Sc5cnc(N6CCC(C)(N)CC6)cn5)c4Cl)C3)CC2)c1', 98.6),
  ('Cc1ncsc1-c1ccc(CNC(=O)[C@@H]2C[C@@H](O)CN2C(=O)[C@@H](NC(=O)C2(F)CC2)C(C)(C)C)c(OC2CCN(C(=O)C3(O)CCN(c4nccc(Sc5cnc(N6CCC(C)(CN)CC6)cn5)c4Cl)CC3)CC2)c1', 99.9),
  ('Cc1ncsc1-c1ccc(CNC(=O)[C@@H]2C[C@@H](O)CN2C(=O)[C@@H](NC(=O)C2(F)CC2)C(C)(C)C)c(O[C@H]2CC[C@H](C(=O)N3CC(Nc4nccc(Sc5cnc(N6CCC(C)(N)CC6)cn5)c4Cl)C3)CC2)c1', 99.7),
  ('Cc1ncsc1-c1ccc(CNC(=O)[C@@H]2C[C@@H](O)CN2C(=O)[C@@H](NC(=O)C2(F)CC2)C(C)(C)C)c(O[C@H]2CC[C@H](C(=O)N3CC(Nc4nccc(Sc5cnc(N6CCC(C)(CN)CC6)cn5)c4Cl)C3)CC2)c1', 98.2),
  ('Cc1ncsc1-c1ccc(CNC(=O)[C@@H]2C[C@@H](O)CN2C(=O)[C@@H](NC(=O)C2(F)CC2)C(C)(C)C)c(OC2CCN(C(=O)C3(F)CCN(c4nccc(Sc5cnc(N6CCC(C)(CN)CC6)cn5)c4Cl)CC3)CC2)c1', 99.8);

q: Requested read-out SHP2% degradation, target or system SHP2 protein (Homo sapiens), entry Cc1ncsc1-c1ccc(CNC(=O)[C@@H]2C[C@@H](O)CN2C(=O)[C@@H](NC(=O)C2(F)CC2)C(C)(C)C)c(OCCC2CCN(C(=O)C3CCN(c4nccc(Sc5cnc(N6CCC(C)(CN)CC6)cn5)c4Cl)CC3)CC2)c1
a: 98.6
